Listed binders paired with reported koff
Biological target: T1, human SIRPγ isoform 1 (human, UniProt Q9P1W8 29-147)
T1 construct: also called SIRPg; sirpg
T1 sequence (Q9P1W8 29-147 limits assumed): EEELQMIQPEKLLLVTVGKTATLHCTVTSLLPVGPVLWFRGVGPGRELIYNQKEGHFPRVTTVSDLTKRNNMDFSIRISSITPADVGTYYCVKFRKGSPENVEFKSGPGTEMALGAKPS
Test: SPR, Langmuir fit
Numeric only. Scale: s⁻¹

A selection of reference data follows.
S65 (scFv, V domains shown, also called clone 65) VH: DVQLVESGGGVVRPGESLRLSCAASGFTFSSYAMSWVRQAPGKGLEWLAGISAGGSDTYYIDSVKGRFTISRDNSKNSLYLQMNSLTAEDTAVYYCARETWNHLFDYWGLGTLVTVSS VL: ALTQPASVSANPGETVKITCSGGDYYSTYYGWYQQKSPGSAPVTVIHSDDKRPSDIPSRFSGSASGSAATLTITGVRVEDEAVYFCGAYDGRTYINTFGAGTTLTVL    0.000134
S69 (scFv, V domains shown, also called clone 69) VH: DLQLVESGGGVVRPGESLRLSCAASGFTFSSYAMSWVRQAPGKGLEWLAGISAGGSDTYYIDSVKGRFTISRDNSKNSLYLQMNSLTAEDTAVYYCARETWNHLFDYWGLGTLVTVSS VL: ALTQPASVSANPGETVKIICSGGDYYSTYYGWYQQKSPGSAPVTVIHSDDKRPSDIPSRFSGSASGSAATLTITGVRVEDEAVYFCGAYDGRTYINTFGAGTTLTVL    0.000199

// below: koff requested for another binder
Specify reported koff for the binder shown: S218 (scFv, V domains shown, scFv-Fc format (VL-linker-VH on human IgG1 Fc)) VH: DVQLVESGGGVVRPGESLTLSCTASGFTFTSSTMNWVRQAPGEGLDWVSSISTSGVITYYADSVKGRATISRDNSKNTLYLRLFSLRADDTAIYYCATDTFDHWGPGTLVTVSS VL: ALTQPASVSANPGETVKITCFGSSGNYGWFQQKSPGSAPVTVIHYNNKRPSDIPSRFSGSKSGSTGTLTITGVRAEDEAVYFCGAWETGSATFGAGTTLTVL 2.12e-05
